Data origin, for the record: patent US20150119378A1

target: Human Ganglion (Homo sapiens, UniProt P30926+P32297); construct: endogenous in cells; experiment: Competition binding to receptors in membrane preparations, human ganglion subtype ([3H]-epibatidine)
Answer each item with its documented pKi.
pKi is defined as minus the log10 of a concentration measured in mol/L.

Using the record for CN[C@@H](C)C/C=C/c1cncc(O[C@@H]2CCN(C(=O)C3CCOCC3)C2)c1 , report its pKi.
4.36

Moving on to CN[C@@H](C)C/C=C/c1cnc(Cl)c(O[C@@H]2CCN(C(=O)C(C)(C)C)C2)c1
4.59

Now the same for CN[C@@H](C)C/C=C/c1cncc(O[C@H]2CCN(C(=O)C3CC3)C2)c1
4.70

CCC(=O)N1CC[C@@H](Oc2cncc(/C=C/C[C@H](C)NC)c2)C1 , same question.
4.72

Now try CN[C@@H](C)C/C=C/c1cncc(O[C@@H]2CCN(C(=O)c3ccc(F)cc3F)C2)c1 .
5.52

Likewise for CN[C@@H](C)C/C=C/c1cnc(Cl)c(O[C@H]2CCN(C(=O)C(C)C)C2)c1 ?
4.57

Thanks! And CN[C@@H](C)C/C=C/c1cncc(O[C@@H]2CCN(C(=O)C3CCCC3)C2)c1 ?
4.85

Query CN[C@@H](C)C/C=C/c1cncc(O[C@@H]2CCN(C(=O)C(C)C)C2)c1 next
4.96

Also CN[C@@H](C)C/C=C/c1cnc(Cl)c(O[C@H]2CCN(C(=O)CC3CCCC3)C2)c1 , if possible.
5.60

Another compound to look at: CCCOC(=O)N1CC(Oc2cncc(/C=C/C[C@H](C)NC)c2)C1
4.36

Input CN[C@@H](C)C/C=C/c1cnc(Cl)c(O[C@@H]2CCN(C(=O)CC(F)(F)F)C2)c1
4.74

Here is the next compound: CN[C@@H](C)C/C=C/c1cncc(O[C@@H]2CCN(C(=O)CC(C)(C)C)C2)c1
4.37

Check CCNC(=O)N1CC[C@@H](Oc2cncc(/C=C/C[C@H](C)NC)c2)C1 too.
3.85

What do we get for CN[C@@H](C)C/C=C/c1cncc(O[C@H]2CCN(C(=O)CC3CCCC3)C2)c1 ?
4.59

Ok, now CN[C@@H](C)C/C=C/c1cncc(O[C@H]2CCN(C(=O)C3CCC3)C2)c1
4.57

And then CN[C@@H](C)C/C=C/c1cnc(Cl)c(O[C@@H]2CCN(C(=O)c3ccc(F)cc3F)C2)c1 , what is it?
5.18

Here is the next compound: CN[C@@H](C)C/C=C/c1cncc(O[C@H]2CCN(C(=O)CC(F)(F)F)C2)c1
5.27

Next record, please: CN[C@@H](C)C/C=C/c1cncc(O[C@@H]2CCN(C(=O)CCC(F)(F)F)C2)c1
4.72

Next: CN[C@@H](C)C/C=C/c1cnc(Cl)c(O[C@@H]2CCN(C(=O)c3ccc(F)cc3)C2)c1
5.70

###

biological target: Rat Ganglion (Rattus norvegicus, UniProt P04757+P12392); assay: Competition binding to receptors in membrane preparations, rat ganglion subtype ([3H]-epibatidine)
I'd appreciate it if you marked entries met when Ki is lower than 20 µM and not met when it is not.

Given CCC(=O)N1CC[C@@H](Oc2cncc(/C=C/C[C@H](C)NC)c2)C1 , is recorded Ki strictly lower than 20 µM?
not met

Thanks! And CN[C@@H](C)C/C=C/c1cncc(O[C@@H]2CCN(C(=O)c3ccc(F)cc3F)C2)c1 ?
met

Thanks! And CN[C@@H](C)C/C=C/c1cnc(Cl)c(O[C@@H]2CCN(C(=O)c3ccc(F)cc3F)C2)c1 ?
not met

And the next one, CN[C@@H](C)C/C=C/c1cnc(Cl)c(O[C@H]2CCN(C(=O)C(C)(C)C)C2)c1 ?
met

Request: CN[C@@H](C)C/C=C/c1cnc(Cl)c(O[C@@H]2CCN(C(=O)CCC(F)(F)F)C2)c1 [drawing 62]
met

Input CCC(=O)N1CC[C@H](Oc2cncc(/C=C/C[C@H](C)NC)c2)C1
not met

For CN[C@@H](C)C/C=C/c1cncc(O[C@@H]2CCN(C(=O)CCC(F)(F)F)C2)c1 then?
not met

Now the same for CN[C@@H](C)C/C=C/c1cnc(Cl)c(O[C@@H]2CCN(C(=O)CC(F)(F)F)C2)c1
met

Now consider CN[C@@H](C)C/C=C/c1cnc(Cl)c(O[C@H]2CCN(C(=O)C(C)C)C2)c1 and answer again.
met

Quick one: CN[C@@H](C)C/C=C/c1cnc(Cl)c(O[C@H]2CCN(C(=O)CC(C)(C)C)C2)c1
met

Next: CN[C@@H](C)C/C=C/c1cncc(O[C@@H]2CCN(C(=O)C(C)C)C2)c1
not met

Try the compound CN[C@@H](C)C/C=C/c1cncc(O[C@H]2CCN(C(=O)CC(F)(F)F)C2)c1
met

// query: CN[C@@H](C)C/C=C/c1cnc(Cl)c(O[C@@H]2CCN(C(=O)c3ccc(F)cc3)C2)c1
met

And for CN[C@@H](C)C/C=C/c1cncc(O[C@@H]2CCN(C(=O)C(C)(C)C)C2)c1 ?
not met

Next compound: CN[C@@H](C)C/C=C/c1cnc(Cl)c(O[C@H]2CCN(C(=O)C3CCCC3)C2)c1
not met

Same for CN[C@@H](C)C/C=C/c1cncc(O[C@H]2CCN(C(=O)c3ccc(F)cc3F)C2)c1
not met

Continue with CN[C@@H](C)C/C=C/c1cncc(O[C@@H]2CCN(C(=O)CC(C)(C)C)C2)c1
not met

What about CN[C@@H](C)C/C=C/c1cncc(O[C@H]2CCN(C(=O)C3CCOCC3)C2)c1 ?
not met

Entry CN[C@@H](C)C/C=C/c1cnc(Cl)c(O[C@@H]2CCN(C(=O)C(C)(C)C)C2)c1 please
met

###

Answer each item with its documented Ki.
target: Human α4β2 (Homo sapiens, UniProt P17787+P43681); construct: expressed in transfected cells; obtained from Dr. Ron Lukas, Barrow Neurological Institute; assay: Competition binding to receptors in membrane preparations, human α4β2 ([3H]-nicotine)
Provide the reading as a plain figure in nM.

Which Ki value is on record for CN[C@@H](C)C/C=C/c1cnc(Cl)c(O[C@@H]2CCN(C(=O)CCC(F)(F)F)C2)c1 [drawing 62] ?
1.4

Entry CN[C@@H](C)C/C=C/c1cncc(O[C@H]2CCN(C(=O)CC(C)(C)C)C2)c1 please
11

Next molecule up: CN[C@@H](C)C/C=C/c1cncc(O[C@@H]2CCN(C(=O)CC(C)(C)C)C2)c1
32

Try the molecule CN[C@@H](C)C/C=C/c1cnc(Cl)c(O[C@H]2CCN(C(=O)CCC(F)(F)F)C2)c1
2.8

###

molecular target: Human α4β2 (Homo sapiens, UniProt P17787+P43681); construct: expressed in transfected cells; obtained from Dr. Ron Lukas, Barrow Neurological Institute; experiment: Competition binding to receptors in membrane preparations, human α4β2 ([3H]-nicotine); conditions: read-out: Human α4β2 Ki
Give pKi for every item shown.
Scale note: pKi = -log10(concentration in M).

Please tell me: pKi of CN[C@@H](C)C/C=C/c1cncc(O[C@@H]2CCN(C(=O)C3CCCC3)C2)c1 , system Human α4β2 (Homo sapiens, UniProt P17787+P43681)?
8.13

Same for CN[C@@H](C)C/C=C/c1cnc(Cl)c(O[C@H]2CCN(C(=O)CC3CCCC3)C2)c1
8.21

Next record, please: CN[C@@H](C)C/C=C/c1cnc(Cl)c(O[C@H]2CCN(C(=O)CC(C)(C)C)C2)c1
8.19

Repeat with CN[C@@H](C)C/C=C/c1cnc(Cl)c(O[C@@H]2CCN(C(=O)C(C)(C)C)C2)c1
8.06

Now consider CN[C@@H](C)C/C=C/c1cncc(O[C@@H]2CCN(C(=O)C3CCC3)C2)c1 and answer again.
8.21

###

target: Human α4β2 (Homo sapiens, UniProt P17787+P43681); construct: expressed in transfected cells; obtained from Dr. Ron Lukas, Barrow Neurological Institute; assay: Competition binding to receptors in membrane preparations, human α4β2 ([3H]-nicotine); conditions: read-out: Human α4β2 Ki
observable: pKi
pKi here: minus log base 10 of the concentration, concentration in moles per litre.

Look up pKi for this compound: CCCOC(=O)N1CC[C@@H](Oc2cncc(/C=C/C[C@H](C)NC)c2)C1
8.29

Then this compound: CN[C@@H](C)C/C=C/c1cncc(O[C@@H]2CCN(C(=O)CCC(F)(F)F)C2)c1
8.37

Can you check CN[C@@H](C)C/C=C/c1cncc(O[C@@H]2CCN(C(=O)C3CCOCC3)C2)c1 next?
8.36

Please answer likewise for CN[C@@H](C)C/C=C/c1cnc(Cl)c(O[C@@H]2CCN(C(=O)c3ccc(F)cc3F)C2)c1
8.42

One more compound: CN[C@@H](C)C/C=C/c1cncc(O[C@@H]2CCN(C(=O)COC)C2)c1
8.04

// query: CN[C@@H](C)C/C=C/c1cncc(O[C@@H]2CCN(C(=O)c3ccc(F)cc3F)C2)c1
8.23

CN[C@@H](C)C/C=C/c1cncc(O[C@@H]2CCN(C(C)=O)C2)c1 , same question.
8.59

Consider next the compound CCNC(=O)N1CC[C@@H](Oc2cncc(/C=C/C[C@H](C)NC)c2)C1 in the same way.
8.00

Same for CN[C@@H](C)C/C=C/c1cnc(Cl)c(O[C@@H]2CCN(C(=O)CC(F)(F)F)C2)c1
8.92

One more compound: CN[C@@H](C)C/C=C/c1cnc(Cl)c(O[C@H]2CCN(C(=O)C3CCCC3)C2)c1
8.68

Same question, CCCOC(=O)N1CC(Oc2cncc(/C=C/C[C@H](C)NC)c2)C1 this time
8.41

What do you have for CN[C@@H](C)C/C=C/c1cncc(OC2CN(C(=O)C3CCOCC3)C2)c1 ?
8.32

Can you check CN[C@@H](C)C/C=C/c1cncc(O[C@H]2CCN(C(=O)c3ccc(F)cc3F)C2)c1 next?
7.54

And the next one, CN[C@@H](C)C/C=C/c1cncc(O[C@H]2CCN(C(=O)c3ccc(F)cc3)C2)c1 ?
8.28

Also, CN[C@@H](C)C/C=C/c1cnc(Cl)c(O[C@H]2CCN(C(=O)C(C)(C)C)C2)c1 please.
8.17

# repeat for CN[C@@H](C)C/C=C/c1cnc(Cl)c(O[C@@H]2CCN(C(=O)C(C)C)C2)c1
8.82

Also CCNC(=O)N1CC[C@H](Oc2cncc(/C=C/C[C@H](C)NC)c2)C1 ?
7.21

And for CN[C@@H](C)C/C=C/c1cncc(OC2CN(C(=O)COC)C2)c1 ?
8.31

Okay, and CN[C@@H](C)C/C=C/c1cnc(Cl)c(O[C@@H]2CCN(C(=O)CC(C)(C)C)C2)c1 ?
7.80

Can you check CN[C@@H](C)C/C=C/c1cncc(O[C@H]2CCN(C(C)=O)C2)c1 next?
7.92
